# credit: ChEMBL document CHEMBL6115011

tested on: K562; test: Cytotoxicity against human K562 cells assessed as inhibition of cell growth measured after 72 hrs by CellTiter 96 Aqueous One Solution Cell Proliferation Assay; assay type: functional; details: Homo sapiens, K562, 72 h
Reported CC50 is given for each of the following compounds.
assay-readout: CC50 (µM)

[[record]]
smi = "NCCCCCCCCNc1ncc(-c2ccccc2)[nH]1"
meas_value = 57.4

[[record]]
smi = "NCCCCCCNc1ncc(-c2ccc(Cl)cc2)[nH]1"
meas_value = 36.2

[[record]]
smi = "NCCCCCCCCNc1ncc(-c2ccc(Cl)cc2)[nH]1"
meas_value = 20

[[record]]
smi = "NCCCCCCCCNc1ncc(-c2ccc(Br)cc2)[nH]1"
meas_value = 30


* * *

experiment: Cytotoxicity against human PBMC cells assessed as survival rate at 400 uM measured after 72 hrs by trypan blue staining based assay (reference value: 48%); assay type: toxicity, cell-based; details: read-out: Survival
assay-readout: viability at 72 h, 400 µM

[[record]]
smi = "NCCCCNc1ncc(-c2ccccc2)[nH]1"
meas_value = "9%"


* * *

Measured log10 of IC50, listed per entry.
test system: Staphylococcus aureus; assay: Antibacterial activity against methicillin-resistant Staphylococcus aureus at 25 degree C measured after 48 hrs by crystal violet staining based microplate reader analysis; type: functional, organism-based
assay-readout: log10 of IC50 (log10 of the value in µM)

[[record]]
smi = "NCCCCCCCNc1ncc(-c2ccccc2)[nH]1"
meas_value = 1.86

[[record]]
smi = "NCCCCCCCCNc1ncc(-c2ccc(Br)cc2)[nH]1"
meas_value = 1.79

[[record]]
smi = "NCCCCCCCCCCCNc1ncc(-c2ccccc2)[nH]1"
meas_value = 1.68

[[record]]
smi = "NCCCCCCCCNc1ncc(-c2ccccc2)[nH]1"
meas_value = 1.66

[[record]]
smi = "NCCCCCCNc1ncc(-c2ccc(Br)cc2)[nH]1"
meas_value = 2.03

[[record]]
smi = "NCCCCCCCCNc1ncc(-c2ccc(Cl)cc2)[nH]1"
meas_value = 1.97

[[record]]
smi = "NCCCCCNc1ncc(-c2ccccc2)[nH]1"
meas_value = 2.70


* * *

system: Staphylococcus epidermidis; assay: Inhibition of biofilm formation in Staphylococcus epidermidis at 25 degree C measured after 48 hrs by crystal violet staining based analysis; assay type: functional, organism-based
pIC50: −log10 of the molar value.
assay-readout: pIC50

[[record]]
smi = "NCCCCCNc1ncc(-c2ccccc2)[nH]1"
assay_readout = "pIC50"
meas_value = 4.59

[[record]]
smi = "NCCCCCCNc1ncc(-c2ccc(Cl)cc2)[nH]1"
assay_readout = "pIC50"
meas_value = 4.38

[[record]]
smi = "NCCCCNc1ncc(-c2ccc(F)cc2)[nH]1"
assay_readout = "pIC50"
meas_value = 5.21

[[record]]
smi = "NCCCCCCCNc1ncc(-c2ccccc2)[nH]1"
assay_readout = "pIC50"
meas_value = 4.91

[[record]]
smi = "NCCCCCCCCCCCCNc1ncc(-c2ccccc2)[nH]1"
assay_readout = "pIC50"
meas_value = 4.62

[[record]]
smi = "NCCCCCCCCNc1ncc(-c2ccc(Cl)cc2)[nH]1"
assay_readout = "pIC50"
meas_value = 4.22

[[record]]
smi = "NCCCCCCCCNc1ncc(-c2ccccc2)[nH]1"
assay_readout = "pIC50"
meas_value = 5.46

[[record]]
smi = "NCCCCCCNc1ncc(-c2ccccc2)[nH]1"
assay_readout = "pIC50"
meas_value = 4.53

[[record]]
smi = "NCCCCCCCCNc1ncc(-c2ccc(Br)cc2)[nH]1"
assay_readout = "pIC50"
meas_value = 4.90

[[record]]
smi = "NCCCCCCCCCCCNc1ncc(-c2ccccc2)[nH]1"
assay_readout = "pIC50"
meas_value = 5.74

[[record]]
smi = "NCCCCCCCCNc1ncc(-c2ccc(F)cc2)[nH]1"
assay_readout = "pIC50"
meas_value = 4.80

[[record]]
smi = "NCCCCCCCCCCNc1ncc(-c2ccccc2)[nH]1"
assay_readout = "pIC50"
meas_value = 5.09

[[record]]
smi = "NCCCCNc1ncc(-c2ccccc2)[nH]1"
assay_readout = "pIC50"
meas_value = 4.48

[[record]]
smi = "NCCCCCCNc1ncc(-c2ccc(Br)cc2)[nH]1"
assay_readout = "pIC50"
meas_value = 4.45

